Can you tell me pIC50 for the items I'm about to list?
# experimental_target: 5-LO (Homo sapiens, UniProt P09917)
# Sequence (P09917 1-674): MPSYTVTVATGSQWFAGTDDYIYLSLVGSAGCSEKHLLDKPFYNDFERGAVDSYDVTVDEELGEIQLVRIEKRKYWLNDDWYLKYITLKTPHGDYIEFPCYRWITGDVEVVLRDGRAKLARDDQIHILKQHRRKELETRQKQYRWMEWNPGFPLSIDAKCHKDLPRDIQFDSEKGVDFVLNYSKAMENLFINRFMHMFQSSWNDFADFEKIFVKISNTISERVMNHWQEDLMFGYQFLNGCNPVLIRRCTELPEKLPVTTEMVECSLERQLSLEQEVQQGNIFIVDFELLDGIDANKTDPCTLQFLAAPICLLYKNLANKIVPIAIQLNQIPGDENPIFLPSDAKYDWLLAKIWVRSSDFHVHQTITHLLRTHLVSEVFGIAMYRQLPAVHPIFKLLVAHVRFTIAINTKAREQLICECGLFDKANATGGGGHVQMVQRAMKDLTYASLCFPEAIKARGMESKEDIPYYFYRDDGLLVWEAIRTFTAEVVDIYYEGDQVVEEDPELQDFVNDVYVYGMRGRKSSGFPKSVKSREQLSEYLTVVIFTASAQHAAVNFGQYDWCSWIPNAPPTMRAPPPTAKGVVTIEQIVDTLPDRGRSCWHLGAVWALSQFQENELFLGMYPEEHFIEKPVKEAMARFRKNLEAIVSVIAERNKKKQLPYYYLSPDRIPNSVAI
# protocol_description: 5-LO product formation of purified 5-LO enzyme (cell-free assay)
# Format: biochemical
# experimental_parameters: 10 µM AA, 2 mM CaCl2, read-out: 5-LO cell-free assay (IC50 in µmol l^-1)
Here pIC50 is given on a logarithmic scale as minus log10 of the concentration in mol/L.

GET /values?readout=pIC50&item= CC(C)C(C1=C(O)c2ccccc2C1=O)c1c(O)c(C(=O)c2ccccc2)c(O)c(C(C2=C(O)c3ccccc3C2=O)C(C)C)c1O (centres unmarked)
5.16

GET /values?readout=pIC50&item= CC(C)C(=O)c1c(O)c(C(C2=C(O)c3ccccc3C2=O)C(C)C)c(O)c(C(C2=C(O)c3ccccc3C2=O)C(C)C)c1O (centres unmarked)
5.55

GET /values?readout=pIC50&item= CC(C)C(=O)c1c(O)c(C(C2=C(O)c3ccccc3C2=O)c2ccccc2)c(O)c(C(C2=C(O)c3ccccc3C2=O)c2ccccc2)c1O (racemic)
6.14

GET /values?readout=pIC50&item= CCCCCC(=O)c1c(O)c(C(C2=C(O)c3ccccc3C2=O)C(C)C)c(O)c(C(C2=C(O)c3ccccc3C2=O)C(C)C)c1O (centres unmarked)
5.76

GET /values?readout=pIC50&item= O=C1C(C(c2ccccc2)c2c(O)c(C(=O)c3ccccc3)c(O)c(C(C3=C(O)c4ccccc4C3=O)c3ccccc3)c2O)=C(O)c2ccccc21 (racemic)
5.52

GET /values?readout=pIC50&item= CC(C)CC(=O)c1c(O)c(C(C2=C(O)c3ccccc3C2=O)c2ccccc2)c(O)c(C(C2=C(O)c3ccccc3C2=O)c2ccccc2)c1O (racemic)
6.34

GET /values?readout=pIC50&item= CCCCCC(=O)c1c(O)c(C(C2=C(O)c3ccccc3C2=O)c2ccccc2)c(O)c(C(C2=C(O)c3ccccc3C2=O)c2ccccc2)c1O (racemic)
5.96

GET /values?readout=pIC50&item= CC(C)CC(=O)c1c(O)c(C(C2=C(O)c3ccccc3C2=O)C(C)C)c(O)c(C(C2=C(O)c3ccccc3C2=O)C(C)C)c1O (centres unmarked)
6.52
